Where these numbers come from: patent US20260008852A1

# EXPERIMENTAL_TARGET: T1, His-tagged mouse B7-H3 (mouse, UniProt Q8VE98 29-244, limits assumed)
# T1 construct: Bought His-tagged protein coated on the ELISA plate; also called mu B7-H3; murine B7-H3
# T1 sequence (looked up): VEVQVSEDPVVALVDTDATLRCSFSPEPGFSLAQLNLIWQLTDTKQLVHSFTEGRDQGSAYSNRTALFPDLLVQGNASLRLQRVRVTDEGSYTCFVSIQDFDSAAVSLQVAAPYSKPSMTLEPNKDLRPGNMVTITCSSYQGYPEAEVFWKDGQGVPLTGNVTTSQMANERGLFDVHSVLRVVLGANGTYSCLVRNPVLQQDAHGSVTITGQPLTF
# ASSAY_NAME: ELISA, coated His-tagged antigen, scFv-Fc 1 ug/ml
For each record, write down the corresponding ELISA OD450 @ 1 ug/ml.
Enter your answer as a number in OD450; do not include the unit.

INPUT: Can you share its ELISA OD450 @ 1 ug/ml? I mean this binder: 40633p1.1.F2 (scFv, V domains shown, Tested as scFv-Fc (Expi293 supernatant)) VH: EVQLLESGGGLVQPGGSLRLSCVASGLTFNGFAMTWVRQAPGKGLEWVSGISWNSGSIYYADSVKGRFTISRDNSKNTVYLQMSSLRAEDTAIYYCAKNWNDYYNSMDVWGQGTTVTVSS VL: QSVLTQPPSASGTPGQRVTISCSGSRSNIGTKYVYWYQQFPGTAPKLLIYTTDRRPSGVPDRFSGSKSGTSASLAISGLQSEDEADYYCSAWDDRLNAWVFGGGTKLTVL
OUTPUT: 1.2

INPUT: # ELISA OD450 @ 1 ug/ml lookup, item 40633p1.2.C3 (scFv, V domains shown, Tested as scFv-Fc (Expi293 supernatant)) VH: EVQLLESGGGLVQPGGSLRLSCAASGFTVSYYGMSWVRQAPGKGLEWVSAIKQDGSEKYYADSVKGRFTISRDNSKNTLYLQMNSLRAEDTAVYYCARHWNDYSNAMNVWEQGTTVTVSS VL: QSVLTQPPSASGTPGQRVTISCSGSNSNVGGNYVSWYQQLPGTAPKLLIYRNSQRPSGVPDRFSGSKSGTSASLAISGLQSEDEAVYYCASWDASLNGWVFGGGTKLTVL
OUTPUT: 0.886

INPUT: Param item = 40633p1.2.D1 (scFv, V domains shown, Tested as scFv-Fc (Expi293 supernatant)) VH: EVQLLESGGGLVQPGGSLRLSCAASGFTFDVYGMSWVRQAPGKGLEWVSAINWNGGSTYYADSVKGRFTISRDNSENTLYLQMNSLRAEDTAVYYCAKEKWKHFIYYGMDVWGQGTTVTVSS VL: QSVLTQPASASGTPGQTVSISCSGSSSNIDSNTANWYQQLPGTAPKLLIYSNNQRPSGVPDRFSGSKSDTSASLAISGLQSEDEGDYYCSAWDDNLNGWLFGGGTKLTVL ; retrieve measured ELISA OD450 @ 1 ug/ml.
OUTPUT: 1.38

INPUT: # query: ELISA OD450 @ 1 ug/ml of entry 40633p1.1.G7 (scFv, V domains shown, Tested as scFv-Fc (Expi293 supernatant)) VH: EVQLLESGGGLVQPGGSLRLSCAASGFTFSGSAMNWVRQAPGKGLEWVSAINSGGTTIYYADSVKGRFTVSRDNSKNTLYLQMNSLRAEDTAVYYCVKLDFYYGMDVWGEGTTVTVSS VL: QSVVTQPPSASGTPGQRVTVSCSGSSSNVGSKYVQWYQQLPGTAPKLLIYATDRRPSGVPDRFSGSKSGTSASLAISGLQSEDEADYYCASWDDSLNAWVFGGGTKLTVL
OUTPUT: 1.87
